Kindly supply the reported IC50 values for the records listed here.
EXPERIMENTAL_SYSTEM: Human HDAC9 (Homo sapiens, UniProt Q9UKV0)
Construct: amino acids 604-1066 with C-terminal His tag; His (C); host or cells: baculovirus expression system
Sequence (Q9UKV0 604-1066 isoform Q9UKV0-5): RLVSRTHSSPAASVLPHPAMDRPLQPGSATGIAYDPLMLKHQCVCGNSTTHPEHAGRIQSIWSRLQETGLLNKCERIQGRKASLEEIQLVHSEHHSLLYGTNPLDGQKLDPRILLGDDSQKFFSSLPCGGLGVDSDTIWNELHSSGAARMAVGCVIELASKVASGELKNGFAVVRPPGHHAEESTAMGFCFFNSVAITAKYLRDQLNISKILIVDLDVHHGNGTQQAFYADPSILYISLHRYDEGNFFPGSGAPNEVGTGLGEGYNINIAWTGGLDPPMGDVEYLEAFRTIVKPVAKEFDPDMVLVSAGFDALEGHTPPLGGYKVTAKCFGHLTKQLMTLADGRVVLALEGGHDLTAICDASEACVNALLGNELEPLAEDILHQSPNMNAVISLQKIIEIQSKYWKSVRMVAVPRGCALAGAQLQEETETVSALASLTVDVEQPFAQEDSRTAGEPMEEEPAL
METHOD_NOTES: HDAC9 biochemical assay, class IIa-specific substrate
MEASUREMENT_PARAMETERS: read-out: HDAC Isoform IC50 (nM) 9

Exercise: Item O=C(c1cnnc(N(Cc2ccc(-c3noc(C(F)(F)F)n3)s2)c2cnccn2)c1)N1C2CCC1COC2 [Example GB] has what recorded IC50?
Solution: ≤ 10000 nM

Exercise: Item Cc1cnc(N(Cc2ccc(-c3noc(C(F)(F)F)n3)s2)c2cc(C(F)(F)F)cnn2)cn1 [Example EO] has what recorded IC50?
Solution: > 10000 nM

Exercise: Item FC(F)(F)c1nccc(N(Cc2ccc(-c3noc(C(F)(F)F)n3)s2)c2cnccn2)n1 [Example CD] has what recorded IC50?
Solution: ≤ 1000 nM

Exercise: Item FC(F)(F)c1nc(-c2ccc(CN(c3cnccn3)c3cnc4[nH]ccc4n3)s2)no1 [Example BN] has what recorded IC50?
Solution: ≤ 500 nM
